Each recorded value in this set is attributed to the RNAGym collection of RNA variant scans (doi:10.1073/pnas.2313332121).

B1: TPR t1 (parent)
chain: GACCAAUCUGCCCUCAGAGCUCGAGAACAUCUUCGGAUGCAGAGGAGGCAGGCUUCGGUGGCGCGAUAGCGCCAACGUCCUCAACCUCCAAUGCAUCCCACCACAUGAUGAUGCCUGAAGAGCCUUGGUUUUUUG

Variants of: B1
Test method notes: polymerase ribozyme fitness, log enrichment relative to wild type (log ratio); higher = more active; in vitro selection for triplet polymerase activity
Field: class. Source value: polymerase ribozyme fitness (log ratio). Ranges: Low: < -4; Medium: ≥ -4 and < -2; High: ≥ -2

Variant descriptor: C62A G120U
Label: High
--
Variant descriptor: A43U C49G U78A C115A
Label: Medium
--
Variant descriptor: A5U G10U G45C G51A A118U G120A
Label: Medium
--
Variant descriptor: U7A C49U G52U G61A G120A
Label: High
--
Variant descriptor: G113C C124U
Label: Medium
--
Variant descriptor: C11U U106C
Label: High
--
Variant descriptor: G51U G77C
Label: High
--
Variant descriptor: G10A G61C U87A C123A
Label: High
--
Variant descriptor: C20G C82A
Label: Low
--
Variant descriptor: A26U G127C
Label: Medium
--
Variant descriptor: C11U G35U G39U C56A G71U G122A
Label: Low
--
Variant descriptor: C13U C34G U133A
Label: Low
--
Variant descriptor: G10U C53A C56A G61U A90C
Label: Low
--
Variant descriptor: C49U C80G
Label: Low
--
Variant descriptor: A27U C115U
Label: Medium
--
Variant descriptor: C53G C72A C82G
Label: High
--
Variant descriptor: G93A U132A G135U
Label: High
